The values you see were collected from patent US20230257372A1.

biological target: human recombinant HDAC6 (Homo sapiens); construct: purchased Calbiochem Inc. 382180; test: HDAC6 enzyme activity inhibition (HDAC Fluorimetric Drug Discovery Kit); assay type: biochemical; conditions: HDAC6 over HDAC1
Sequence (Q9UBN7 whole entry): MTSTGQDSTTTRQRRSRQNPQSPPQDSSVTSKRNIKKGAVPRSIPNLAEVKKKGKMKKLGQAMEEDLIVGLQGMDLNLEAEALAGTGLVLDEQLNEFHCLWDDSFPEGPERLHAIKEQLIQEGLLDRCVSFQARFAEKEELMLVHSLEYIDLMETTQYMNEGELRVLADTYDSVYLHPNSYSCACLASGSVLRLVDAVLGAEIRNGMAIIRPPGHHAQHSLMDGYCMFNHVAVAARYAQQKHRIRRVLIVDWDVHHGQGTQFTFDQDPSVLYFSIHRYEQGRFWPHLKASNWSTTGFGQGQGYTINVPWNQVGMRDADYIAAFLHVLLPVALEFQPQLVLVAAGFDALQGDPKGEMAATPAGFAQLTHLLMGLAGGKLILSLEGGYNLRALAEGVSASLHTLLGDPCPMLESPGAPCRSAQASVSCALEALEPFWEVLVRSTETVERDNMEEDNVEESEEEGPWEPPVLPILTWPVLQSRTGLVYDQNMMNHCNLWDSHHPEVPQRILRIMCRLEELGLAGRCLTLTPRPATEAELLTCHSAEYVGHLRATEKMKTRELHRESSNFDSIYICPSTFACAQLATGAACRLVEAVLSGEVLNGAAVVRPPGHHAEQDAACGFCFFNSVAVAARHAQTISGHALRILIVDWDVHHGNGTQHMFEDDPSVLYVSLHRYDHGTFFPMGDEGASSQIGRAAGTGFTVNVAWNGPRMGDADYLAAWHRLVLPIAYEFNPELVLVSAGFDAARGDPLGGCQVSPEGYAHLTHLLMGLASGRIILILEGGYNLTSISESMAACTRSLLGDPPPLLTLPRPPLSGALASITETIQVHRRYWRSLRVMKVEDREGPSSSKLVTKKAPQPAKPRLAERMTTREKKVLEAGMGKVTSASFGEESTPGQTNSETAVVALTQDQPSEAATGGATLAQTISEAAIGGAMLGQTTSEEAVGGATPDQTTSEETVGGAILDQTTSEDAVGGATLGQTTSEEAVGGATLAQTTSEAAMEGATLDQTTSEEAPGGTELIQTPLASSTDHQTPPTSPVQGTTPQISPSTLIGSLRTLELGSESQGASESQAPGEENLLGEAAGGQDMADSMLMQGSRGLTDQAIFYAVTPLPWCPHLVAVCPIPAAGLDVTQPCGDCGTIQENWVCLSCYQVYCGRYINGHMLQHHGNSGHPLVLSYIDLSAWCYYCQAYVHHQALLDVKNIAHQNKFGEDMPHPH
Is HDAC6 selectivity (fold) at least 800 fold? Then 1. If not, -1.

Smiles Data: CC1CCN(Cc2ccc(-c3cn(Cc4ncc(-c5nnc(C(F)F)o5)cc4F)nn3)s2)CC1
System Under Test: human recombinant HDAC6 (Homo sapiens)
Group: 1
--
Smiles Data: Fc1cc(-c2nnc(C(F)F)o2)cnc1Cn1cc(-c2ccc3cn[nH]c3c2)nn1
System Under Test: human recombinant HDAC6 (Homo sapiens)
Group: 1
--
Smiles Data: Fc1cc(-c2nnc(C(F)F)o2)ccc1Cn1cc(-c2cccc3c2OC(F)(F)O3)nn1
System Under Test: human recombinant HDAC6 (Homo sapiens)
Group: -1
--
Smiles Data: Fc1cc(-c2nnc(C(F)F)o2)ccc1Cn1cc(-c2cncc(-c3cn[nH]c3)c2)nn1
System Under Test: human recombinant HDAC6 (Homo sapiens)
Group: 1
--
Smiles Data: Fc1cc(-c2nnc(C(F)F)o2)cnc1Cn1cc(-c2cccnc2)nn1
System Under Test: human recombinant HDAC6 (Homo sapiens)
Group: -1

Request: Please tell me: is the compound Fc1cc(-c2nnc(C(F)F)o2)ccc1Cn1cc(-c2cn3ccccc3n2)nn1 at or over 800 fold in terms of HDAC6 selectivity (fold)?
Result: -1

Request: Evaluate FC(F)c1nnc(-c2ccc(Cn3cc(-c4ccc(CN5CCCC5)cc4)nn3)cc2)o1 : HDAC6 selectivity (fold) at minimum 800 fold?
Result: 1

Request: Evaluate FC(F)c1nnc(-c2ccc(Cn3cc(-c4cccc(C5CN(C6CCC6)C5)c4)nn3)cc2)o1 : HDAC6 selectivity (fold) at minimum 800 fold?
Result: 1

Request: Threshold query (HDAC6 selectivity (fold) >= 800 fold) on Fc1c(-c2cn(Cc3ccc(-c4nnc(C(F)F)o4)cn3)nn2)cccc1N1CCN(C2COC2)CC1
Result: 1
